- subjectOfTest: pooled human IgG (human)
- protocolSummary: cell-based or functional assay; further: test concentration or dose not given here
binders and their reported Enzyme Activity Endpoint Assay (purified): scIgG
Reply with just the number (in ng/µL).

binder	measurementUnits	measuredResult
PRT-214 (enzyme) MEVVEVWPYGQNPNGKTEILSQTEDSESLQRLRDIEDFQAEKKKEGVVYTKWLDGVDVDDHDFRKITDGDIEYYATPLLNGRGFYDINKDFNRDSDKCAAAVAANMFHYWLDRNRDNVDRFLKQNPEKHGIIELPDGQLKLSDFLNTYESDYGYRDKSKLFDFISNNFNGPVWTDKLLDNYINGYAYNYKYGRTIEDPTKNTSKINFFKEVFDEKLLTNNHSIRNYNEFSELLREALYTGKAIGLSYGPAGLRHSLGHIISVWGADLDEDGNVVAIYVTDSDDKKLTIGDERVGLKRYKVSSDDENRARLTAYEEKDNTGGEIRGLYTLDTGKQAWADYFDKTEQTGTDQAEQLEHHHHHH	ng/µL	0

(Q) Endpoint output: Enzyme Activity Endpoint Assay (purified): scIgG of PRT-196 (enzyme) MEVVEVWPYGQNPNGKTEILSQTEDSESLQRLRDIEDFQAEKKMQNVVYTKWLDGVDVKDHDFRKIVDGNIAYYATPLLNGRGFYDINKDFNRDSDKCAAAVAANMFHYWLDINRDNVDRFLRQNPEKHGIIELPDGQLKLSDFLNTYESDHGYRDKSKLFDFISNNFNGPVWTDKLLDNYINGYAYNYKYGRTIEDPTKNTSKINFFKEVFNEKILTNNHSIRNQNEFSVLLSEALYTGKAIGLSYGPAGLRHSLGHIISVWGADLDADGNVVAIYVTDSDDKKLTIGDERVGLKRYKISTDDENRLRLTAYEETHNTGGQIRGLWTLDTGKYAWADYFDKTEQTGTDQAEQLEHHHHHH . Value?
(A) 504
